Target: Fatty acid CoA ligase Acsl3 (Homo sapiens)
Sequence (O95573 whole entry): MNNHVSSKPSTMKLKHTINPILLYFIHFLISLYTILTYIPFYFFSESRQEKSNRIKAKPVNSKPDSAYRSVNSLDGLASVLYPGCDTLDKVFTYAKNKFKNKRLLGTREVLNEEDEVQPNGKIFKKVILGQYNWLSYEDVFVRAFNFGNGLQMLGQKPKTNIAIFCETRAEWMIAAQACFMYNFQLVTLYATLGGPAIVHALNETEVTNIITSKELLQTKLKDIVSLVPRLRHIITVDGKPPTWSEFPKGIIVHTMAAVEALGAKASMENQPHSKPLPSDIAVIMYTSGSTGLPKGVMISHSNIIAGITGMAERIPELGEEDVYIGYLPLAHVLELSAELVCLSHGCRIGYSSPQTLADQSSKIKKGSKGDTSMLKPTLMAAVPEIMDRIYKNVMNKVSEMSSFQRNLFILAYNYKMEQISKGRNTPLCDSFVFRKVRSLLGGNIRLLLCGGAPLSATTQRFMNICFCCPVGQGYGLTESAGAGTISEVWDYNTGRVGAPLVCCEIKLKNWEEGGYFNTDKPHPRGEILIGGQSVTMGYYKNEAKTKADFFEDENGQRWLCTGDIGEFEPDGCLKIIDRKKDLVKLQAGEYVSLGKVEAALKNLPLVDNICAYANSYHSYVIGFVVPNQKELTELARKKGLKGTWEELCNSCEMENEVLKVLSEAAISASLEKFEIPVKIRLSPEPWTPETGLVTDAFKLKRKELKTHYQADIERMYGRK
Assay: Inhibition of recombinant human ACSL3 assessed as reduction in […] prodution incubated for 90 mins in presence of Coenzyme A, ATP and MgCl2 by MALDI-TOF MS analysis
Give pIC50 for every item shown.
Numbers only, as −log10 of the molar value.

[[record]]
smiles_str = "O=C(O)CCCCCCOc1ccc2oc3ccccc3c(=O)c2c1"
quantity_kind = "pIC50"
observed_result = 3.94


Form field pIC50 for item O=c1c2ccccc2oc2ccc(O[C@H]3CC[C@@H](C(=O)O)CC3)cc12 on Fatty acid CoA ligase Acsl3 (Homo sapiens): 4.16

---

Assay: Solubility of compound in pH 1.2
Type: physicochemical
Details: buffer
Quantity kind: solubility (µg/mL)
Answers are plain numbers, in µg/mL.

Measured solubility of Cc1cccc(Cc2nc3cc(O[C@H]4CC[C@@H](C(=O)O)CC4)ccc3n2C)c1 : 307

---

Assay: Metabolic stability in rat liver microsomes assessed as compound remaining after 30 mins
Format: ADME, Microsome
Details: read-out: Stabilty
Quantity kind: remaining at 0.5 h (%)
Give bare numbers, in %.

Sure, the documented remaining at 0.5 h for Cc1cccc(Cc2nc3cc(O[C@H]4CC[C@@H](C(=O)O)CC4)ccc3n2C)c1 is 93

---

Assay: Oral bioavailability in rat at 1 mg/kg
Format: ADME, organism-based
Conditions: in vivo
Quantity kind: bioavailability
The reply must contain the numeric value and, after it, the unit.

// field: bioavailability; key: Cc1cccc(Cc2nc3cc(O[C@H]4CC[C@@H](C(=O)O)CC4)ccc3n2C)c1 ; value = 119%

---

Experiment: Metabolic stability in mouse liver microsomes assessed as compound remaining after 30 mins
Format: ADME, Microsome
Settings: read-out: Stabilty
Quantity kind: remaining at 0.5 h (%)
Give bare numbers, in %.

Notebook: Cc1cccc(Cc2nc3cc(O[C@H]4CC[C@@H](C(=O)O)CC4)ccc3n2C)c1 , remaining at 0.5 h read as 99

---

Experiment: AUC in rat at 1 mg/kg, po
Format: ADME, organism-based
Parameters: dose 1 mg/kg
Conditions: in vivo
Quantity kind: AUC (ng·h/mL)
One number for each entry, in ng·h/mL.

Sure, the documented AUC for Cc1cccc(Cc2nc3cc(O[C@H]4CC[C@@H](C(=O)O)CC4)ccc3n2C)c1 is 11800

---

Assay: Volume of distribution at steady state in rat at 0.5 mg/kg, iv
Assay type: ADME, organism-based
Conditions: in vivo, read-out: Vdss
Quantity kind: Vd (L/kg)
Give bare numbers, in L/kg.

The value of Vd measured for the compound Cc1cccc(Cc2nc3cc(O[C@H]4CC[C@@H](C(=O)O)CC4)ccc3n2C)c1 turned out to be 0.38

---

Target: UniProt:Q9UKU0
Sequence (Q9UKU0 whole entry): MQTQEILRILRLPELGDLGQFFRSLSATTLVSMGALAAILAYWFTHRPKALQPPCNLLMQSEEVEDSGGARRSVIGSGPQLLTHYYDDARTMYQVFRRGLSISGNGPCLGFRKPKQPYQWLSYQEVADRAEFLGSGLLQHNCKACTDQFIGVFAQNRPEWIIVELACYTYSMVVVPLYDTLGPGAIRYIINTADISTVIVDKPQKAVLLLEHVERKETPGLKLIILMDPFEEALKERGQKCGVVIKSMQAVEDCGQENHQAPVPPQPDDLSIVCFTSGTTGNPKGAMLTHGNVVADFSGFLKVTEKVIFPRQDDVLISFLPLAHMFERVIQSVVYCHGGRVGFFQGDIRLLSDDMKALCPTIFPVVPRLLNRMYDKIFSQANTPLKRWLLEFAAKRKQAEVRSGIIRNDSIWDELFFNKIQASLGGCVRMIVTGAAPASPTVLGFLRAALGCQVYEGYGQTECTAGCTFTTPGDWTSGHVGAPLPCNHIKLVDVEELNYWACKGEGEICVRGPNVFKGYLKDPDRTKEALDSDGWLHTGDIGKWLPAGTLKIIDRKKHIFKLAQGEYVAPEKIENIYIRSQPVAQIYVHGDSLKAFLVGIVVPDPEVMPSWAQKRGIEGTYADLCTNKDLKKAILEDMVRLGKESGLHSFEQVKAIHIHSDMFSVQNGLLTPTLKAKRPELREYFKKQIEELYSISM
Assay: Inhibition of recombinant human ACSL6 assessed as reduction in […] prodution incubated for 60 mins in presence of Coenzyme A, ATP and MgCl2 by MALDI-TOF MS analysis
Quantity kind: pIC50
Answers are plain numbers, as −log10 of the molar value.

Past entries and their recorded results:
[[record]]
smiles_str = "O=C(O)CCCCCCOc1ccc2oc3ccccc3c(=O)c2c1"
observed_result = 5.21

[[record]]
smiles_str = "O=C(O)CCCCOc1ccc2oc3ccccc3c(=O)c2c1"
observed_result = 4.03


Attention now turns to another entry.
The molecule O=c1c2ccccc2oc2ccc(O[C@H]3CC[C@@H](C(=O)O)CC3)cc12 , tested on UniProt:Q9UKU0, showed pIC50 of 4.15

---

Target: Long-chain-fatty-acid--CoA ligase 1 (Mus musculus, UniProt P41216)
Sequence (P41216 whole entry): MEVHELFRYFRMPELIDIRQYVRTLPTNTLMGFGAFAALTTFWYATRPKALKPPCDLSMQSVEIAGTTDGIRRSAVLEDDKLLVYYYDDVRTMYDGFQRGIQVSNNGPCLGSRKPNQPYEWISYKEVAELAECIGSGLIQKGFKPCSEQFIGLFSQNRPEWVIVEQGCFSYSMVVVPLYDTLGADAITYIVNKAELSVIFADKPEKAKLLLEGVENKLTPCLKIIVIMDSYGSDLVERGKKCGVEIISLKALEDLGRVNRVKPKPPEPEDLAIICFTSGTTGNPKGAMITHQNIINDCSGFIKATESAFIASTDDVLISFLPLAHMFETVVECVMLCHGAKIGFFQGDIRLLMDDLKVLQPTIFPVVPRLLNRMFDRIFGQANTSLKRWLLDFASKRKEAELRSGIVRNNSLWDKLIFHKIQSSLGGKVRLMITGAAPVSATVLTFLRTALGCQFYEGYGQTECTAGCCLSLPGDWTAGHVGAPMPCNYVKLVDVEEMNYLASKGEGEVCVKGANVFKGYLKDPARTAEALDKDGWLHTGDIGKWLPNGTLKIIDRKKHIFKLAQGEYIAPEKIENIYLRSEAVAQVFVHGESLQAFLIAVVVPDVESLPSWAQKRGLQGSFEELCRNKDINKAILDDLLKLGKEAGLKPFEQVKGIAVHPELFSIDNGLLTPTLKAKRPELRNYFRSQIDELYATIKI
Assay: Inhibition of recombinant mouse ACSL1 assessed as reduction in […] prodution incubated for 90 mins in presence of Coenzyme A, ATP and MgCl2 by MALDI-TOF MS analysis
Provide the recorded pIC50 for the entries that follow.
Give bare numbers, as −log10 of the molar value.

Observe how each entry below is paired with its result.
[[record]]
smiles_str = "O=C(O)[C@H]1CC[C@@H](Oc2ccc3c(c2)Cc2ccccc2O3)CC1"
observed_result = 5.40

[[record]]
smiles_str = "Cc1cccc(Cc2nc3c(Cl)c(O[C@H]4CC[C@@H](C(=O)O)CC4)ccc3n2C)c1"
observed_result = 4.25

[[record]]
smiles_str = "Cc1cccc(Cc2nc3cc(O[C@H]4CC[C@@H](C(=O)O)CC4)ccc3o2)c1"
observed_result = 6.85


Now let's try a different one.
Cc1cccc(Cc2nc3cc(O[C@H]4CC[C@@](F)(c5nnn[nH]5)CC4)ccc3n2C)c1 yielded pIC50 of 7.89

---

Biological target: Long-chain-fatty-acid--CoA ligase 1 (Homo sapiens, UniProt P33121)
Sequence (P33121 whole entry): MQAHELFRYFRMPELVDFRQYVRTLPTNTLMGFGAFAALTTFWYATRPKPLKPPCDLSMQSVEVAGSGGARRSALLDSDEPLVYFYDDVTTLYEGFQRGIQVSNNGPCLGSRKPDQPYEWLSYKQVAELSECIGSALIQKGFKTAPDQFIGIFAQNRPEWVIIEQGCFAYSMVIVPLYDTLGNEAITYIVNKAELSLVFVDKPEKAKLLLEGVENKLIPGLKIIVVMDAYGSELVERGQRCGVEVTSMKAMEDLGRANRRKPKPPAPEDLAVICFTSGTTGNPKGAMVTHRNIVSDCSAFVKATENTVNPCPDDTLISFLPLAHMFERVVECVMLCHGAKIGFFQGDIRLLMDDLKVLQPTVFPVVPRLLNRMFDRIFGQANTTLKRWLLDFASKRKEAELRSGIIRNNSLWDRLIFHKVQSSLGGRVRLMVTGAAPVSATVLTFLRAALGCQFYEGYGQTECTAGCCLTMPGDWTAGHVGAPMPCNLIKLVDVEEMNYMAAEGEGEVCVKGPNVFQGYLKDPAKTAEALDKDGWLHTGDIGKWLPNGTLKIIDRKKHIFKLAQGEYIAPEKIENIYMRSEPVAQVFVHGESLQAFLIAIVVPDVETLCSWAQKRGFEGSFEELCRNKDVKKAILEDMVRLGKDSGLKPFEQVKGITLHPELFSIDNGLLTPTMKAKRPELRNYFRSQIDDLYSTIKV
Assay: Inhibition of recombinant human ACSL1 assessed as reduction in […] prodution incubated for 90 mins in presence of Coenzyme A, ATP and MgCl2 by MALDI-TOF MS analysis
Quantity kind: IC50 (nM)
Numbers only, in nM.

Solved entries (count: 6):
[[record]]
smiles_str = "Cc1cccc(Cc2nc3cc(O[C@H]4CC[C@@H](c5nnn[nH]5)CC4)ccc3n2C)c1"
measurement_unit = "nM"
observed_result = 34

[[record]]
smiles_str = "Cc1cccc(Cc2nc3cc(O[C@H]4CC[C@@H](C(=O)O)CC4)c(Cl)cc3n2C)c1"
measurement_unit = "nM"
observed_result = 47

[[record]]
smiles_str = "O=C(O)[C@H]1CC[C@@H](Oc2ccc3c(c2)Cc2ccccc2O3)CC1"
measurement_unit = "nM"
observed_result = 4600

[[record]]
smiles_str = "Cn1c(Cc2cccc(C#N)c2)nc2cc(O[C@H]3CC[C@@H](C(=O)O)CC3)ccc21"
measurement_unit = "nM"
observed_result = 51000

[[record]]
smiles_str = "Cc1cccc(COc2nc3cc(O[C@H]4CC[C@@H](C(=O)O)CC4)ccc3n2C)c1"
measurement_unit = "nM"
observed_result = 17000

[[record]]
smiles_str = "Cn1c(Cc2cccc(C(F)(F)F)c2)nc2cc(O[C@H]3CC[C@@H](C(=O)O)CC3)ccc21"
measurement_unit = "nM"
observed_result = 190


# per-item lookup of IC50; items listed below
1. O=C(O)[C@H]1CC[C@@H](Oc2ccc3oc(-c4ccccc4)nc3c2)CC1
2. Cc1cccc(Cc2c(C#N)c3cc(O[C@H]4CC[C@@H](C(=O)O)CC4)ccc3n2C)c1
3. Cc1cccc(Cc2nc3cc(O[C@H]4CC[C@@H](C(=O)O)CC4)ccc3o2)c1
4. Cc1cccc(Cc2nc3c(Cl)c(O[C@H]4CC[C@@H](C(=O)O)CC4)ccc3n2C)c1
5. Cn1c(Cc2cccnc2)nc2cc(O[C@H]3CC[C@@H](C(=O)O)CC3)ccc21
6. O=c1c2ccccc2oc2ccc(O[C@H]3CC[C@H](C(=O)O)CC3)cc12
7. Cc1ccccc1Cc1nc2cc(O[C@H]3CC[C@@H](C(=O)O)CC3)ccc2n1C
8. Cc1cccc(Cn2nc3cc(O[C@H]4CC[C@@H](C(=O)O)CC4)ccc3c2C)c1

1. 4400
2. 1900
3. 39
4. 61000
5. 141000
6. 240
7. 7800
8. 45

Please give IC50, item by item, for the list that follows.
1. Cc1ccc(Cc2nc3cc(O[C@H]4CC[C@@H](C(=O)O)CC4)ccc3n2C)cc1
2. Cc1cccc(Cc2cc3cc(O[C@H]4CC[C@@H](C(=O)O)CC4)ccc3n2C)c1
3. Cc1cccc(Cc2nc3cc(O[C@H]4CC[C@@H](C(=O)O)CC4)ccc3n2C)c1
4. Cc1cccc(Cc2nc3cc(O[C@H]4CC[C@@H](C(=O)O)CC4)ncc3n2C)c1

1. 150
2. 400
3. 42
4. 41000

For each entry beneath this line, provide reported IC50.
1. Cn1c(Cc2ccc3c(c2)OCC3)nc2cc(O[C@H]3CC[C@@H](C(=O)O)CC3)ccc21
2. Cn1c(Cc2ccc3c(c2)OCC3)nc2cc(O[C@H]3CC[C@@](F)(c4nnn[nH]4)CC3)ccc21

1. 13
2. 3

---

Assay: Metabolic stability in human liver microsomes assessed as compound remaining after 30 mins
Format: ADME, Microsome
Details: read-out: Stabilty
Quantity kind: remaining at 0.5 h (%)
Answers are plain numbers, in %.

Looking up Cc1cccc(Cc2nc3cc(O[C@H]4CC[C@@H](C(=O)O)CC4)ccc3n2C)c1 , I see its remaining at 0.5 h listed as 96

---

Test: Solubility of compound in pH 6.8
Assay type: physicochemical
Settings: buffer
Quantity kind: solubility (µg/mL)
Give bare numbers, in µg/mL.

solubility measured on Cc1cccc(Cc2nc3cc(O[C@H]4CC[C@@H](C(=O)O)CC4)ccc3n2C)c1 = 8.6

---

Experiment: Fraction unbound in rat plasma
Assay type: ADME, cell-free
Quantity kind: fraction unbound
One number for each entry.

fraction unbound reported for this molecule Cc1cccc(Cc2nc3cc(O[C@H]4CC[C@@H](C(=O)O)CC4)ccc3n2C)c1 : 0.017

---

Test: Cmax in rat at 1 mg/kg, po
Type: ADME, organism-based
Design: route oral, dose 1 mg/kg
Details: in vivo
Quantity kind: Cmax (µg/mL)
One number for each entry, in µg/mL.

Consider Cc1cccc(Cc2nc3cc(O[C@H]4CC[C@@H](C(=O)O)CC4)ccc3n2C)c1 . Its measured Cmax is 1.11
